Measured values drawn from paper PMC9482650 for this set.

Biological target: T1, LRRC7, Q96NW7
T1 sequence (Q96NW7 1440-1537, limits assumed, looked up): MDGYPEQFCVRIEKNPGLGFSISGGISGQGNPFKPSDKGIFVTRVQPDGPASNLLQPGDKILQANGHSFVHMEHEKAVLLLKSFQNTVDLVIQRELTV
Experiment: holdup assay
Set-up: key: below the threshold = too weak to quantify, mostly under pKd 3.1 to 4
Conditions: plain residues with an end cap or a label only (N-terminal biotin on a linker: ado-ado)

{"binder": "LPHGHSTTRV [NLGN4X, Q8N0W4]", "pKd": "below the threshold"}
{"binder": "PAPSSGKDYV [CLDN1, O95832]", "pKd": "below the threshold"}
{"binder": "DDENIRTSDV [PLEKHA2, Q9HB19]", "pKd": 3.72}
